# Method: Pharmacokinetics of RAP-103 in non-human primates (plasma levels, bioavailability)
# Type: in vivo, Rhesus macaques; Macaca mulatta
# Protocol Conditions: rhesus monkey, in vivo, 1 mg/kg, female rhesus monkeys; 1 mg/kg dose level; read-out: Absolute bioavailability
Property: bioavailability
Just the number plus its unit, please.

Looking for the measured bioavailability of C[C@H](O)[C@@H](N)C(=O)N[C@@H](C(=O)N[C@H](CC(N)=O)C(=O)N[C@H](Cc1ccc(O)cc1)C(=O)N[C@@H](C(=O)O)[C@H](C)O)[C@H](C)O [RAP-103, All D-peptide-Thr-Thr-Asn-Tyr-Thr] , can you help?
88%

---

# Method: Pharmacokinetics of RAP-103 in non-human primates (plasma levels, bioavailability)
# Type: in vivo, Rhesus macaques; Macaca mulatta
# Protocol Conditions: rhesus monkey, in vivo, po, 1 mg/kg, male rhesus monkeys; 1 mg/kg dose level; read-out: Absolute bioavailability
Property: bioavailability (%)
Numeric only. Scale: %

// lookup bioavailability for C[C@H](O)[C@@H](N)C(=O)N[C@@H](C(=O)N[C@H](CC(N)=O)C(=O)N[C@H](Cc1ccc(O)cc1)C(=O)N[C@@H](C(=O)O)[C@H](C)O)[C@H](C)O [RAP-103, All D-peptide-Thr-Thr-Asn-Tyr-Thr]
89

---

# Method: Pharmacokinetics of RAP-103 in non-human primates (plasma levels, bioavailability)
# Assay type: in vivo, Rhesus macaques; Macaca mulatta
# Protocol Conditions: rhesus monkey, in vivo, po, 1 mg/kg, non-human primates; read-out: Oral bioavailability
Property: bioavailability

// query bioavailability value for entry C[C@H](O)[C@@H](N)C(=O)N[C@@H](C(=O)N[C@H](CC(N)=O)C(=O)N[C@H](Cc1ccc(O)cc1)C(=O)N[C@@H](C(=O)O)[C@H](C)O)[C@H](C)O [RAP-103, All D-peptide-Thr-Thr-Asn-Tyr-Thr]
88%
